Record form. Attribute: log10 GI50. Fill in for each entry.
Test system: UO-31
Test: NCI tumour cell line growth inhibition, 48 h
Among all 57,000 sequences or so, about 3,400 (6%) were called active. Only a sample is shown. Entries with a potency or affinity are not part of this list.
Field: value | Transform: log10 | Quantity: GI50 | Unit: µM

Prompt: Please provide the recorded log10 GI50 for [Bis(aminomethyl)dimethylsilane]dichloroplatinum (II), CHEMBL2146201 , tested on UO-31.
Completion: 1.74

Prompt: Please provide the recorded log10 GI50 for [Bis(aminomethyl)pentamethylenesilane]dichloropaltinum(II), CHEMBL2146202 , tested on UO-31.
Completion: 0.51

Prompt: Please provide the recorded log10 GI50 for cis-Bis[[(trimethylsilyl)methyl]amino]tetrachloroplatinum(IV), CHEMBL2146191 , tested on UO-31.
Completion: 1.21

Prompt: Please provide the recorded log10 GI50 for [Bis(aminomethyl)pentamethylenesilane]tetrachloropaltinum(IV), CHEMBL2146204 , tested on UO-31.
Completion: -0.14

Prompt: Please provide the recorded log10 GI50 for [Bis(aminomethyl)dimethylsilane]tetrachloroplatinum(IV), CHEMBL2146190 , tested on UO-31.
Completion: 1.00

// data source = ChEMBL document CHEMBL1201862
